Values compiled from patent US20240391954A1.

- measurement.target: human MC3R (human, UniProt P41968 1-323)
- Sequence (P41968 whole entry): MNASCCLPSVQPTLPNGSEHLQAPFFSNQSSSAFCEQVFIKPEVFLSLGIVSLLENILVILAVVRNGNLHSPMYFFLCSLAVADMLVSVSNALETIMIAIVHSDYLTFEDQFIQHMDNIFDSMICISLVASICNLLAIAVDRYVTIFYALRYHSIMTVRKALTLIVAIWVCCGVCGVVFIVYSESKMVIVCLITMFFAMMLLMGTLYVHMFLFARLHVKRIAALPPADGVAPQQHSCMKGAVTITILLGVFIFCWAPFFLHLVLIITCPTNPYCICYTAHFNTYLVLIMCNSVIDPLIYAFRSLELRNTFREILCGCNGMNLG
- test.method.notes: cell-based or functional assay
Positions of bridges follow the written chain, without caps; N, C: chain ends. Non-standard residues stand in square brackets, D forms with d. Cit = NC(=O)NCCC[C@H](N)C(=O)O; Orn = NCCC[C@H](N)C(=O)O; Aib = CC(C)(N)C(=O)O
measurement.type: cAMP EC50
Answer as a quantity: numeral, then unit.

Example results:
Ac-RC[Aib][Orn][dF]RFC-NH2 (disulfide 2-8; SMILES CC(=O)N[C@@H](CCCNC(=N)N)C(=O)N[C@H]1CSSC[C@@H](C(N)=O)NC(=O)[C@H](Cc2ccccc2)NC(=O)[C@H](CCCNC(=N)N)NC(=O)[C@@H](Cc2ccccc2)NC(=O)[C@H](CCCN)NC(=O)C(C)(C)NC1=O) [CTX-1602] : 251 nM
Ac-RCG[Cit][dF]RWC-NH2 (disulfide 2-8) [CTX-1294] : 40 nM

Can you share its cAMP EC50? I mean this binder: Ac-RCAR[dF]RWC-NH2 (disulfide 2-8; SMILES CC(=O)N[C@@H](CCCNC(=N)N)C(=O)N[C@H]1CSSC[C@@H](C(N)=O)NC(=O)[C@H](Cc2c[nH]c3ccccc23)NC(=O)[C@H](CCCNC(=N)N)NC(=O)[C@@H](Cc2ccccc2)NC(=O)[C@H](CCCNC(=N)N)NC(=O)[C@H](C)NC1=O) [CTX-1267] 12 nM

Can you share its cAMP EC50? I mean this binder: Ac-C[dA][Cit][dF]RWC-NH2 (disulfide 1-7; SMILES CC(=O)N[C@H]1CSSC[C@@H](C(N)=O)NC(=O)[C@H](Cc2c[nH]c3ccccc23)NC(=O)[C@H](CCCNC(=N)N)NC(=O)[C@@H](Cc2ccccc2)NC(=O)[C@H](CCCNC(N)=O)NC(=O)[C@@H](C)NC1=O) [CTX-1628] 92 nM
